Target: CIT (Homo sapiens, UniProt O14578)
Construct: endogenous in cells
Sequence (O14578 whole entry): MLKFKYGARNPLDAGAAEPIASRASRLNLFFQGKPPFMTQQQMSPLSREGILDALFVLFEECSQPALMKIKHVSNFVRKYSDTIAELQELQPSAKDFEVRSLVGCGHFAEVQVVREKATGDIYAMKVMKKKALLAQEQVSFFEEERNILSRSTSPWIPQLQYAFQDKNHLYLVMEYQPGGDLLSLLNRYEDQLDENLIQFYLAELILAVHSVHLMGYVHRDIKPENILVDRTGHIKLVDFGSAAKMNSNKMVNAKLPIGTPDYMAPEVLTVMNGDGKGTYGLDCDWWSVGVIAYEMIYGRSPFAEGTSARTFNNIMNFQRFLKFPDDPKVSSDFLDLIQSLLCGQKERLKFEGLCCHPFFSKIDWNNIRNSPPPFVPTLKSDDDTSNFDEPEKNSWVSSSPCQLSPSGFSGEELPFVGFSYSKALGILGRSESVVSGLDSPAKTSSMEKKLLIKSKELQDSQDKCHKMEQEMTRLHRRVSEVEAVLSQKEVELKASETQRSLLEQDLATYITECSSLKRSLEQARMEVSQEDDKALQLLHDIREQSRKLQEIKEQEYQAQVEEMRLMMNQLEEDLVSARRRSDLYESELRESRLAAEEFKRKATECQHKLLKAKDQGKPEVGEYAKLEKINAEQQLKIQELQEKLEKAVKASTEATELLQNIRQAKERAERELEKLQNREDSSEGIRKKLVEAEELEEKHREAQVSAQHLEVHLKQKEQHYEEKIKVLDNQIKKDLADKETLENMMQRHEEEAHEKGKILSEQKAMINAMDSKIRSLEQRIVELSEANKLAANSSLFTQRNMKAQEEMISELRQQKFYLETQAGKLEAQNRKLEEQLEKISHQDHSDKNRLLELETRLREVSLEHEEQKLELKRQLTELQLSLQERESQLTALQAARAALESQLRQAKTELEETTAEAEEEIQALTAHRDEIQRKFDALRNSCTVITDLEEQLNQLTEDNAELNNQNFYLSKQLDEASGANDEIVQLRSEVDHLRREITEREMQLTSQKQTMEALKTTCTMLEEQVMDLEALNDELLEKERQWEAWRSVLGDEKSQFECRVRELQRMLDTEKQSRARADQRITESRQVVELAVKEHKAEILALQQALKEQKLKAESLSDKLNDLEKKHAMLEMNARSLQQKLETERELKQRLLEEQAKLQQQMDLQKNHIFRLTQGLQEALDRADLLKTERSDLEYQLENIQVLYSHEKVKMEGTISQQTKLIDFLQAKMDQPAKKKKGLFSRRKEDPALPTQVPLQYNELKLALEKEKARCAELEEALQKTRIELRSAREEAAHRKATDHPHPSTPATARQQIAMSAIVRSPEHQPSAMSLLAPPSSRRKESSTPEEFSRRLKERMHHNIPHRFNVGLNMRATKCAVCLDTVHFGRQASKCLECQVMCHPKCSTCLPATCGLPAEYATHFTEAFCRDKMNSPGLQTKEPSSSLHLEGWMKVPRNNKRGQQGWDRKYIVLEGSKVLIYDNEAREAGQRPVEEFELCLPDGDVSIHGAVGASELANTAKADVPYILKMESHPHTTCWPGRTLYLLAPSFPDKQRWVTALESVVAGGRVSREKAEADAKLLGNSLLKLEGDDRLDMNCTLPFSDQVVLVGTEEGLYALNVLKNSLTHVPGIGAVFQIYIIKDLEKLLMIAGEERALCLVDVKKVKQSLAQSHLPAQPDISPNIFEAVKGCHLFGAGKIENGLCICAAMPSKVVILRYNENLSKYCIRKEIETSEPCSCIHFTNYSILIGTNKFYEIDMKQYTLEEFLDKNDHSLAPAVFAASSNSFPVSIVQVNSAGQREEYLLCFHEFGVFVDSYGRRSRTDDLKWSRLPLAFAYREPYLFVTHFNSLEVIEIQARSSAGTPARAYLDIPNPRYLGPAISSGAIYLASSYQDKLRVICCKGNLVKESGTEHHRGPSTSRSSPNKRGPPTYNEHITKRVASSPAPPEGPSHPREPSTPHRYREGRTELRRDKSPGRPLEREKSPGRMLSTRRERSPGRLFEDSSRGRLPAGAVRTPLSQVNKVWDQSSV
Assay: Kinobeads full dose-response competition binding: CIT
Conditions: Gene Name CIT; eight-dose curve fit, doses in nM
measurementLabel: EC50 (nM)
Give your result in nM as a bare value.

// CCn1c(-c2nonc2N)nc2c(C#CC(C)(C)O)nc(OCCN)cc21 [GSK902056A] : EC50 value = 279

----------
Biological target: ABL2 (Homo sapiens)
Construct: endogenous in cells
Sequence (P42684 whole entry): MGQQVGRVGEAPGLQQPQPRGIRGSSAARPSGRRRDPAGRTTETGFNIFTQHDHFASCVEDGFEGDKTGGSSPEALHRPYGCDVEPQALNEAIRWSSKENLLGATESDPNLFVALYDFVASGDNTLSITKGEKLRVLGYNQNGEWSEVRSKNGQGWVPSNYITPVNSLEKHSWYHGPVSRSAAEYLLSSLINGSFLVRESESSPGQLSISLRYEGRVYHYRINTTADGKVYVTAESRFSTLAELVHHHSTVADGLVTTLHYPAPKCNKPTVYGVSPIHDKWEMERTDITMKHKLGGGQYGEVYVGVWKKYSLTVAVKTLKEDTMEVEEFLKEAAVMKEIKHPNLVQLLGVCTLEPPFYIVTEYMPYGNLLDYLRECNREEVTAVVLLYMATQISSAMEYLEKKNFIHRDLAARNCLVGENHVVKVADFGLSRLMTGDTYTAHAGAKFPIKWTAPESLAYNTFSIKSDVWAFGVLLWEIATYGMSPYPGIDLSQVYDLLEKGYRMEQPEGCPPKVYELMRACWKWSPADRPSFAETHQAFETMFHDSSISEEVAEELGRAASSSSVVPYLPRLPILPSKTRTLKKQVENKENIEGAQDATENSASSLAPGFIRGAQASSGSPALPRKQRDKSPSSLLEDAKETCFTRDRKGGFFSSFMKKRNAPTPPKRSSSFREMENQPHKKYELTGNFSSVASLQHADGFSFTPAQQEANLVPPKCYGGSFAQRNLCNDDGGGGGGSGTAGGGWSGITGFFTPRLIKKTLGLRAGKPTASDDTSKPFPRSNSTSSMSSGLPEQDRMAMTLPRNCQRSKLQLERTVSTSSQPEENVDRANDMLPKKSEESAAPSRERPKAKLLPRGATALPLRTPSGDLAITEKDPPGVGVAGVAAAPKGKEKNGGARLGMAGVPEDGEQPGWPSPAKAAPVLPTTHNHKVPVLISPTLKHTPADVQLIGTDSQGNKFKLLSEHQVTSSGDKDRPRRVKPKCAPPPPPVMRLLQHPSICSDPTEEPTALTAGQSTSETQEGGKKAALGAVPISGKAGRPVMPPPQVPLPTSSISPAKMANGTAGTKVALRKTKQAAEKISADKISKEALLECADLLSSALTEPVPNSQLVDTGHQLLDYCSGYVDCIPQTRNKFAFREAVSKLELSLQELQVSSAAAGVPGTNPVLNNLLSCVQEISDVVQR
Experiment: Kinobeads competition binding: ABL2
Conditions: target ABL2
CATDS overview
# output: bare number, no unit

# example entries with known answers
{"columns": ["chemicalString", "testResult"],
 "data": [
  ["Nc1ncnc2[nH]c(-c3ccccc3)nc12", 0],
  ["CCN1CCN(Cc2ccc(Nc3ncc(F)c(-c4cc(F)c5nc(C)n(C(C)C)c5c4)n3)nc2)CC1", 0],
  ["CCc1cc2c(cc1N1CCC(N3CCOCC3)CC1)C(C)(C)c1[nH]c3cc(C#N)ccc3c1C2=O", 0]
]}

The reported ABL2 (Homo sapiens) CATDS of N#CC1(c2ccc(NC(=O)c3cccnc3NCc3ccncc3)cc2)CCCC1 is 0
